Measured values drawn from patent US20220056104A1 for this set.

Biological target: T1, Recombinant DR3-Fc (R&D Systems, cat. #943-D3) (UniProt Q93038 25-199, limits assumed)
T1 construct: dimeric MW~92 kDa; also called DR3 receptor; Fc-DR3; not shown: Fc part of the bought fusion
T1 sequence (looked up): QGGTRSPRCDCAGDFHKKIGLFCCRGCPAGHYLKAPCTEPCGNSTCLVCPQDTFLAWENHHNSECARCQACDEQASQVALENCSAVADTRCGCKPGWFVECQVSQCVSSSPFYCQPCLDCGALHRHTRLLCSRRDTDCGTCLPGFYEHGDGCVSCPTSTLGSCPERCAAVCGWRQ
Assay: ELISA, DR3-Fc immobilized
Quick list: Rel EC50 per entry.

Report Rel EC50 for TL1W100 (His-TEV-TL1A S176L) (ligand, also called TL1W100 (S176L)) HHHHHHENLYFQGLKGQEFAPSHQQVYAPLRADGDKPRAHLTVVRQTPTQHFKNQFPALHWEHELGLAFTKNRMNYTNKFLLIPESGDYFIYSQVTFRGMTSECSEIRQAGRPNKPDLITVVITKVTDSYPEPTQLLMGTKSVCEVGSNWFQPIYLGAMFSLQEGDKLMVNVSDISLVDYTKEDKTFFGAFLL please. 12.4 ratio (head: nM)

Report Rel EC50 for TL1W85 (His-TEV-TL1A G124S) (ligand, also called TL1W85 (G124S)) HHHHHHENLYFQGLKGQEFAPSHQQVYAPLRADGDKPRAHLTVVRQTPTQHFKNQFPALHWEHELSLAFTKNRMNYTNKFLLIPESGDYFIYSQVTFRGMTSECSEIRQAGRPNKPDSITVVITKVTDSYPEPTQLLMGTKSVCEVGSNWFQPIYLGAMFSLQEGDKLMVNVSDISLVDYTKEDKTFFGAFLL please. 11.3 ratio (head: nM)

Others:
Report Rel EC50 for TL1W108 (His-TEV-TL1A S187A) (ligand, also called TL1W108 (S187A)) HHHHHHENLYFQGLKGQEFAPSHQQVYAPLRADGDKPRAHLTVVRQTPTQHFKNQFPALHWEHELGLAFTKNRMNYTNKFLLIPESGDYFIYSQVTFRGMTSECSEIRQAGRPNKPDSITVVITKVTDAYPEPTQLLMGTKSVCEVGSNWFQPIYLGAMFSLQEGDKLMVNVSDISLVDYTKEDKTFFGAFLL please. 1.5 ratio (head: nM)
